FYI, the data here is from ChEMBL document CHEMBL2029214.

Target: Muscarinic acetylcholine receptor M4 (Homo sapiens)
Sequence (P08173 whole entry): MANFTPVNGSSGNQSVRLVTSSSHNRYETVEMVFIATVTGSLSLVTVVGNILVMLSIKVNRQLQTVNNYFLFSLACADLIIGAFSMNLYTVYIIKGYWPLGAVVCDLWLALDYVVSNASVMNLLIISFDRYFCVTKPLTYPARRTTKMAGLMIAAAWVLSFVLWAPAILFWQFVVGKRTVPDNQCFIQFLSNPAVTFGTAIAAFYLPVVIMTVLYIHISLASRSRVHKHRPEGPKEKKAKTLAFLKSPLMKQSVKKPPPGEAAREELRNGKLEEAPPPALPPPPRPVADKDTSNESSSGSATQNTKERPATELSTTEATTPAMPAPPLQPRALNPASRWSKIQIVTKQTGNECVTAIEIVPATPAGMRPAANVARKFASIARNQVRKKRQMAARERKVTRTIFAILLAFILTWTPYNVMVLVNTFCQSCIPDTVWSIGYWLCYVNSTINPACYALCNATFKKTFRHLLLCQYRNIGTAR
Experiment: Binding affinity to human recombinant M4 receptor
Recorded Ki, one value per entry.
Please provide the amount together with its unit, number first.

Asked: Ki for C[C@@H]1CCCN1CCc1cc2cc(C(=O)c3ccc(F)cc3)ccc2o1 ?
Given back: 351 nM

Asked: # iterate: C[C@@H]1CCCN1CCc1cc2cc(C(=O)c3ccc([N+](=O)[O-])cc3)ccc2o1
Given back: 415 nM

* * *

A collection of molecules and their measured Ki
Target: Sodium-dependent serotonin transporter (Homo sapiens)
Sequence (P31645 whole entry): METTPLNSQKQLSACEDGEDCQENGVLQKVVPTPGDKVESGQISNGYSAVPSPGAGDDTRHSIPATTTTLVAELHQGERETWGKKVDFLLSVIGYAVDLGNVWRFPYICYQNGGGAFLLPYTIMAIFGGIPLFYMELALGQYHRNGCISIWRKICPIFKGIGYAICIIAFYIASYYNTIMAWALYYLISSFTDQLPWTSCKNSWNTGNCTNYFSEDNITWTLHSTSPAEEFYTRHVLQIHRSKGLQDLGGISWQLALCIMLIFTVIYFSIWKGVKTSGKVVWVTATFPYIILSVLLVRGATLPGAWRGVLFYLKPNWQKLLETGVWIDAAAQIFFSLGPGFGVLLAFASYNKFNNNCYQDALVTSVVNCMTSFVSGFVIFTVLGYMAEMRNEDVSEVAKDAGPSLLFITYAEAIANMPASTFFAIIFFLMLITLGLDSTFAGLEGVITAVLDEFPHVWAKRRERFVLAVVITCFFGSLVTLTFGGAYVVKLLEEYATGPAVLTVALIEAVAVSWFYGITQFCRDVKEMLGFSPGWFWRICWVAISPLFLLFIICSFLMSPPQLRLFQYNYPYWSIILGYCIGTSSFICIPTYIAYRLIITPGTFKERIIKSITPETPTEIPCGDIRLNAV
Assay: Binding affinity to human recombinant SERT

Asked: # input molecule: C[C@@H]1CCCN1CCc1cc2cc(C(=O)c3ccc(F)cc3)ccc2o1 ; wanted: its Ki
Given back: > 10 µM

Asked: Try C[C@@H]1CCCN1CCc1cc2cc(C(=O)c3ccc([N+](=O)[O-])cc3)ccc2o1 next.
Given back: > 10 µM

* * *

Molecular target: D(3) dopamine receptor (Homo sapiens, UniProt P35462)
Sequence (P35462 whole entry): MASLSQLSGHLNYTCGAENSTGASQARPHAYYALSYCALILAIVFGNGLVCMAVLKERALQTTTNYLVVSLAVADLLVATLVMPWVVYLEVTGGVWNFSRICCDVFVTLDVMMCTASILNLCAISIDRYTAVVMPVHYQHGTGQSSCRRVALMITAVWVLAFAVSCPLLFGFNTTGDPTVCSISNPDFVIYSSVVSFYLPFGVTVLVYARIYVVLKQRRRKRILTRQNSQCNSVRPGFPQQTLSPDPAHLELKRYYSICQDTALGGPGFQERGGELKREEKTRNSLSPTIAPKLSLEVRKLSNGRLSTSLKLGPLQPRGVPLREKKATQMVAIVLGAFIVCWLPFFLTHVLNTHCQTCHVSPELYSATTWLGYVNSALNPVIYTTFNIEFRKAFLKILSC
Test: Binding affinity to human recombinant Dopamine D3 receptor
pKi: −log10 of the molar value.
Readout: pKi

- C[C@@H]1CCCN1CCc1cc2cc(C(=O)c3ccc([N+](=O)[O-])cc3)ccc2o1: < 5.00

Kindly consider the entry below.
Asked: Need pKi, item C[C@@H]1CCCN1CCc1cc2cc(C(=O)c3ccc(F)cc3)ccc2o1
Given back: < 5.00

* * *

Target: 5-hydroxytryptamine receptor 2C (Homo sapiens)
Sequence (P28335 whole entry): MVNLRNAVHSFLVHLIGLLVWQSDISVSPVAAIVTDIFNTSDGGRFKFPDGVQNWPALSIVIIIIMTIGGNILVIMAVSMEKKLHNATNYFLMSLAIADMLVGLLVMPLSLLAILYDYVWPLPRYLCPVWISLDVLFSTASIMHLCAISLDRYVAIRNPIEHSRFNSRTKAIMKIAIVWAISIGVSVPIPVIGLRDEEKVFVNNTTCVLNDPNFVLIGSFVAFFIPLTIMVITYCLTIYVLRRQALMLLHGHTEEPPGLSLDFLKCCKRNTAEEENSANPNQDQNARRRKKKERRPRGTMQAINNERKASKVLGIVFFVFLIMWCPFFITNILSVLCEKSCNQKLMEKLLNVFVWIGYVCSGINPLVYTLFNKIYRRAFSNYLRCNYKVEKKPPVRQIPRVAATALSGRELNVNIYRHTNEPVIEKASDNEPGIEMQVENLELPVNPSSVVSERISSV
Test: Binding affinity to human recombinant 5HT2C receptor
pKi: −log10 of the molar value.
Readout: pKi

* C[C@@H]1CCCN1CCc1cc2cc(C(=O)c3ccc([N+](=O)[O-])cc3)ccc2o1 | < 5.00

Asked: Given the entry C[C@@H]1CCCN1CCc1cc2cc(C(=O)c3ccc(F)cc3)ccc2o1 , what pKi was observed with 5-hydroxytryptamine receptor 2C (Homo sapiens)?
Given back: < 5.00

* * *

Biological target: Sodium-dependent noradrenaline transporter (Homo sapiens, UniProt P23975)
Sequence (P23975 whole entry): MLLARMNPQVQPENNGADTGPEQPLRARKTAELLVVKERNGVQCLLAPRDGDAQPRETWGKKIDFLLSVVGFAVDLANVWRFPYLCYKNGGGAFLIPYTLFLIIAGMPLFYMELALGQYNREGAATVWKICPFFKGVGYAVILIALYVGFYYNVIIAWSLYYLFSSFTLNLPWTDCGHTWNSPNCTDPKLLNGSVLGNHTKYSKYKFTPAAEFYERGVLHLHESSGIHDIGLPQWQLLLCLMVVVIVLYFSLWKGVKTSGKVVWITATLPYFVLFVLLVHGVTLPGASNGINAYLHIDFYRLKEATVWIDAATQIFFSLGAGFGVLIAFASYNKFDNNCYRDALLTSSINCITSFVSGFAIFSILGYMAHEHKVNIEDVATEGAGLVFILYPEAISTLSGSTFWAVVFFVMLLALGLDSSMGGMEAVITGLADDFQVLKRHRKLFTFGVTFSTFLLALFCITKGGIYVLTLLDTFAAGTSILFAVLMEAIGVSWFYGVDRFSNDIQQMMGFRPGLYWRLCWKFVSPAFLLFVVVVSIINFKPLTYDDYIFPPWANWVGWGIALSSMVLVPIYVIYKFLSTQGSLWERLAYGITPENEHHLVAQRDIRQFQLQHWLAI
Assay: Binding affinity to human recombinant NET
pKi: −log10 of the molar value.
Readout: pKi

• C[C@@H]1CCCN1CCc1cc2cc(C(=O)c3ccc(F)cc3)ccc2o1 = < 5.00

Asked: Please give the measured pKi for this compound: C[C@@H]1CCCN1CCc1cc2cc(C(=O)c3ccc([N+](=O)[O-])cc3)ccc2o1
Given back: < 5.00

* * *

Molecular target: 5-hydroxytryptamine receptor 6 (Homo sapiens, UniProt P50406)
Sequence (P50406 whole entry): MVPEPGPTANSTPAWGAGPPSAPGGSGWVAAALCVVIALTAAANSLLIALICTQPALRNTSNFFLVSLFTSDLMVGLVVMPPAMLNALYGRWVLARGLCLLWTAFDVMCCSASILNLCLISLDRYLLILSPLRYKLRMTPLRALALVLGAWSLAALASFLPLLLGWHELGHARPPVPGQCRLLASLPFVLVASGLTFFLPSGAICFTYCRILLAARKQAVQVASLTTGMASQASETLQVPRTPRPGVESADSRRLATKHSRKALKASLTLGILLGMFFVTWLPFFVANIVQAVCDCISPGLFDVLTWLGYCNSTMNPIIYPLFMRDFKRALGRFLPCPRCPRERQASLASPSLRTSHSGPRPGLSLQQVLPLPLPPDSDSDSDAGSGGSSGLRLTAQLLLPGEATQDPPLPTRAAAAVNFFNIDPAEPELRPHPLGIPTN
Assay: Binding affinity to human recombinant 5HT6 receptor
Catalogue of Ki values

- C[C@@H]1CCCN1CCc1cc2cc(C(=O)c3ccc([N+](=O)[O-])cc3)ccc2o1: > 10 µM

Asked: Query (molecule): C[C@@H]1CCCN1CCc1cc2cc(C(=O)c3ccc(F)cc3)ccc2o1 ; field requested: Ki
Given back: > 10 µM
